- experimental_system: Cytochrome P450 2C19 (Homo sapiens) (UniProt P33261)
- Sequence (P33261 whole entry, looked up): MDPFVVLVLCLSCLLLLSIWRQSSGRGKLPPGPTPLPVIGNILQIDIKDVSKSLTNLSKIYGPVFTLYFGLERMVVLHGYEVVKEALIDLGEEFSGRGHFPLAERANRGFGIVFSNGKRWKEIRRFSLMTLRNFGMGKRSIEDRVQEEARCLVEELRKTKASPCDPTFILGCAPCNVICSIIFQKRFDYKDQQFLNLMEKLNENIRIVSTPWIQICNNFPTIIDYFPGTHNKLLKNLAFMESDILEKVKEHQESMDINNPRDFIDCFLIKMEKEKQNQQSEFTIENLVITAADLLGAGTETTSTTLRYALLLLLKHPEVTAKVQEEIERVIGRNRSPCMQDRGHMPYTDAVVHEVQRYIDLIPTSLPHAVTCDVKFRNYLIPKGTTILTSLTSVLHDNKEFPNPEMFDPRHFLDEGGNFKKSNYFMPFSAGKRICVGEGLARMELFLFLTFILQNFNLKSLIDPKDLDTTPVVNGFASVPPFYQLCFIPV
- protocol_text: Cytochrome panel assay with activity outcomes; as to activity, negative = inhibition: % is scaled to controls: 0 for no effect and ±100 for the full control effect
- condition_info: recombinant CYP, pro-luciferin dealkylation, luminescence, p450-cyp2c19; series mostly up to 57.1 µM
Hit rate of the full screen: of about 16,000 compounds, about 5,800 (36%) were called active. Not shown: some 23% with an inconclusive outcome. The list shows a part of the results.
Could you please report measured activity, negative = inhibition for the items listed next?

C[C@@H]1/C=C\CC(=O)OC[C@H](C)C(=O)N2CCC[C@@H]2C(=O)OC1	72.6% [at 11.4 µM] (inactive)
O=C(O)[C@@H]1[C@@H](C(=O)NCc2ccccn2)[C@@H]2C=C[C@@H]1O2	36% [at 11.4 µM] (inactive)
CCOC(=O)N/N=C1/C[C@@H](O)[C@@H](O)[C@@H]2[C@@H]3C(=O)N(C(C)(C)C)C(=O)[C@H]3CC[C@@H]12	-19.4% [at 11.4 µM] (inactive)

Prompt: Reported activity, negative = inhibition for `N/C(=N\O)c1cn([C@@H]2O[C@@H](CO)[C@H](O)[C@@H]2O)c2ncnc(NO)c12` : what is it?
Completion: 14.4% [at 11.4 µM] (inactive)

----------
- experimental_system: Cytochrome P450 2C19 (Homo sapiens)
- protocol_text: Cytochrome panel assay with activity outcomes
- condition_info: recombinant CYP, pro-luciferin dealkylation, luminescence, p450-cyp2c19; series mostly up to 57.1 µM
- Protocol: The P450 gene superfamily is involved in the metabolism and clearance of xenobiotics. This assay used various human CYP P450 isozymes to measure the dealkylation of various pro-luciferin substrates to luciferin. The luciferin is then measured by luminescence after the addition of a luciferase detection reagent. […] Inhibitors and some substrates limit the production of luciferin, and decrease measured luminescence. […] 8, Detection, 1 sec, ViewLux luminescent read […]
Screen size: about 16,000 compounds; about 5,800 (36%) were called active. Roughly 23% stayed inconclusive and do not appear here. Calls come from the whole dose curve; as a rule, active = well fitted curve in the direction sought with a large enough effect; inconclusive = small, poorly fitted or top-dose-only effect, or effect the other way; inactive = no such curve, though single readings can be large or run the other way. This is one part of the list.
Output constraint: value belongs to active, inactive

The following compounds have reported results that may help.
CO[C@H]1C[C@@H](O[C@@H]2[C@H](C)[C@H](O[C@@H]3O[C@@H](C)C[C@@H](N(C)C)[C@@H]3O)[C@H](C)C[C@]3(CO3)C(=O)[C@H](C)[C@H](O)[C@H](C)[C@H](C)OC(=O)[C@@H]2C)O[C@@H](C)[C@H]1O	inactive
CC(C)C(NC(=O)C12CC3CC(CC(C3)C1)C2)C(=O)NC1=NCCS1 (stereo not given)	active
c1ccc(CSCCc2ccncc2)cc1	active

Prompt: Lab log entry: `O=C(SCc1cccc2ccccc12)c1ccc(Cl)cc1` — outcome as called in the assay?
Completion: active

Prompt: Please give the result for `COc1ccc(-c2nc3cnc(Nc4cccc(OC)c4)nc3n(Cc3cccs3)c2=O)cc1` too.
Completion: inactive

Prompt: One more compound: `O=c1c(-c2ccc(F)cc2)nc2cnc(N3CCOCC3)nc2n1C1CC1`
Completion: inactive

Prompt: And `Cc1cc(C(F)(F)F)n2nc(-c3cnn(C)c3C(F)(F)F)cc2n1` ?
Completion: active

Prompt: And what about the compound `CN1CCN(c2ncncc2-c2cccnc2)CC1` ?
Completion: inactive

Prompt: Ok, now `COc1cccc(OC)c1C(=O)NC(=S)N1CCN(c2ccc(C(F)(F)F)cc2[N+](=O)[O-])CC1`
Completion: active

Prompt: Repeat with `Cc1ncc([N+](=O)[O-])n1CCO`
Completion: inactive

Prompt: Same question, `CCOC(=O)c1cnc(-n2nc(C)cc2C)nc1NCCO` this time
Completion: inactive

Prompt: Also need `COC(=O)N1CCC[C@@]2(CCN(C(=O)Nc3cccc(F)c3)C2)C1` , thanks.
Completion: inactive

Value source: PubChem BioAssay AID1851
